Catalogue of solubility readings, one per entry.
Assay: Solubilities in water
Assay type: physicochemical
Details: water; read-out: Solubilities in water

MOLECULE	RESULT_OPERATOR	solubility [µg/mL]
C[C@@H]1O[C@@H](OC[C@H]2O[C@@H](Oc3c(-c4ccc(O)c(O)c4)oc4cc(O)cc(O)c4c3=O)[C@H](O)[C@@H](O)[C@@H]2O)[C@@H]2OC(C)(C)O[C@@H]2[C@H]1O	=	7000
O=c1ccc2cc(O[C@@H]3O[C@H](CO)[C@@H](O)[C@H](O)[C@H]3O)c(O)cc2o1 [Esculin, reference compound]	=	1700
C[C@@H]1O[C@@H](Oc2c(-c3ccc(O)c(O)c3)oc3cc(O)cc(O)c3c2=O)[C@@H]2OC3(CCCCC3)O[C@@H]2[C@H]1O	<	100
O=c1c(O[C@@H]2O[C@H](CO[C@@H]3OC[C@H](O)[C@H](O)[C@H]3O)[C@@H](O)[C@H](O)[C@H]2O)c(-c2ccc(O)c(O)c2)oc2cc(O)cc(O)c12 [3-Vicianosyl quercetin, reference compound]	=	330
COc1ccc(C2CC(=O)c3c(O)cc(O[C@@H]4O[C@H](CO[C@@H]5O[C@@H](C)[C@H](O)[C@H]6OC(C)(C)O[C@@H]56)[C@@H](O)[C@H](O)[C@H]4O)cc3O2)cc1O (stereo partly drawn)	=	900
CC1(C)OC[C@H]2O[C@@H](Oc3c(-c4ccc(O)c(O)c4)oc4cc(O)cc(O)c4c3=O)[C@H](O)[C@@H](O)[C@@H]2O1	<	100
COc1ccc([C@@H]2CC(=O)c3c(O)cc(O[C@@H]4O[C@H](CO[C@@H]5O[C@@H](C)[C@H](O)[C@@H](O)[C@H]5O)[C@@H](O)[C@H](O)[C@H]4O)cc3O2)cc1O [Hesperidin, reference compound]	=	20
O=c1ccc2cc(O[C@@H]3O[C@@H]4COC5(CCCCC5)O[C@H]4[C@H](O)[C@H]3O)c(O)cc2o1	=	1250
CC1(C)OC[C@H]2O[C@@H](Oc3cc4ccc(=O)oc4cc3O)[C@H](O)[C@@H](O)[C@@H]2O1	=	9200

----------
Tested on: carragenin edema
Experiment: Anti-inflammatory activity: carragenin edema test
Assay type: in vivo
Settings: Rattus norvegicus, ip, 4 h, 200 mg/kg i.p., substantially alkaline pH solution, 4 h; read-out: % inhibition of carragenin edema
Method: Anti-inflammatory activity This was determined by the carragenin edema test using male Wistar EOPS rats. Inflammation was induced by the injection of 0.1 ml of a suspension of 5% carragenin in physiological serum into the muscular bundle of the metatarsal region of the posterior paw of the animal. The test substance was administered i.p. in neutralized solution at the same time as the carragenin. Edema was measured by plethysmometry at different times after the administration of the carragenin. […]
TEST_READOUT: inhibition in vivo at 200 mg/kg

MOLECULE	MEASUREMENT_TARGET	TEST_READOUT	RESULT
COc1ccc(-c2cc(=O)c3c(O)cc(O[C@@H]4O[C@H](CO[C@@H]5O[C@@H](C)[C@H](O)[C@H]6OC(C)(C)O[C@@H]56)[C@@H](O)[C@H](O)[C@H]4O)cc3o2)cc1O	carragenin edema	inhibition in vivo at 200 mg/kg	30%
C[C@@H]1O[C@@H](O[C@H]2[C@H](Oc3cc(O)c4c(c3)OC(c3ccc(O)cc3)CC4=O)O[C@H](CO)[C@@H](O)[C@@H]2O)[C@@H]2OC(C)(C)O[C@@H]2[C@H]1O (some centres unmarked)	carragenin edema	inhibition in vivo at 200 mg/kg	27%
COc1ccc(C2CC(=O)c3c(O)cc(O[C@@H]4O[C@H](CO[C@@H]5O[C@@H](C)[C@H](O)[C@H]6OC(C)(C)O[C@@H]56)[C@@H](O)[C@H](O)[C@H]4O)cc3O2)cc1O (some centres unmarked)	carragenin edema	inhibition in vivo at 200 mg/kg	52%
CC1(C)OC[C@H]2O[C@@H](Oc3cc4ccc(=O)oc4cc3O)[C@H](O)[C@@H](O)[C@@H]2O1	carragenin edema	inhibition in vivo at 200 mg/kg	7%
O=c1ccc2cc(O[C@@H]3O[C@@H]4COC5(CCCCC5)O[C@H]4[C@H](O)[C@H]3O)c(O)cc2o1	carragenin edema	inhibition in vivo at 200 mg/kg	23%

----------
Assay: i.p. toxicity in Swiss EOPS mice, mortality at 14 days
Conditions: mouse, in vivo, ip; 750 mg/kg i.p., DMSO solution at 1/2; read-out: percentages of mortality at the end of 14 days
TEST_READOUT: mortality at 336 h (%)

> print(dat)
                            molecule.smiles  quantitative.result
1  O=c1ccc2cc(O[C@@H]3O[C@@H]4COC5(CCCCC5)O[C@H]4[C@H](O)[C@H]3O)c(O)cc2o1                   80

----------
Listing of entries alongside the reported inhibition in vivo at 200 mg/kg.
Test system: carragenin edema
Assay: Anti-inflammatory activity: carragenin edema test
Assay type: in vivo
Conditions: Rattus norvegicus, ip, 1 h, 200 mg/kg i.p., substantially alkaline pH solution, 1 h; read-out: % inhibition of carragenin edema

COMPOUND	READOUT_UNIT	inhibition in vivo at 200 mg/kg
CC1(C)OC[C@H]2O[C@@H](Oc3cc4ccc(=O)oc4cc3O)[C@H](O)[C@@H](O)[C@@H]2O1	%	26
C[C@@H]1O[C@@H](O[C@H]2[C@H](Oc3cc(O)c4c(c3)OC(c3ccc(O)cc3)CC4=O)O[C@H](CO)[C@@H](O)[C@@H]2O)[C@@H]2OC(C)(C)O[C@@H]2[C@H]1O (some centres unmarked)	%	42
O=c1ccc2cc(O[C@@H]3O[C@@H]4COC5(CCCCC5)O[C@H]4[C@H](O)[C@H]3O)c(O)cc2o1	%	59
COc1ccc(C2CC(=O)c3c(O)cc(O[C@@H]4O[C@H](CO[C@@H]5O[C@@H](C)[C@H](O)[C@H]6OC(C)(C)O[C@@H]56)[C@@H](O)[C@H](O)[C@H]4O)cc3O2)cc1O (some centres unmarked)	%	18
COc1ccc(-c2cc(=O)c3c(O)cc(O[C@@H]4O[C@H](CO[C@@H]5O[C@@H](C)[C@H](O)[C@H]6OC(C)(C)O[C@@H]56)[C@@H](O)[C@H](O)[C@H]4O)cc3o2)cc1O	%	16

----------
Target: Aldose Reductase (Bos taurus)
Construct: The enzyme is extracted from beef eye lenses; from tissue; host or cells: beef eye lenses
Assay: Inhibition of aldose reductase in vitro (enzyme from beef eye lenses, glyceraldehyde substrate)
Format: biochemical
Conditions: 10^-5 mole/l, in DMF solution; read-out: percentages of inhibition (aldose reductase)
Reported inhibition at 10 µM values for a set of compounds

COMPOUND	inhibition at 10 µM
C[C@@H]1O[C@@H](OC[C@H]2O[C@@H](Oc3c(-c4ccc(O)c(O)c4)oc4cc(O)cc(O)c4c3=O)[C@H](O)[C@@H](O)[C@@H]2O)[C@@H]2OC(C)(C)O[C@@H]2[C@H]1O	32%
C[C@@H]1O[C@@H](Oc2c(-c3cc(O)c(O)c(O)c3)oc3cc(O)cc(O)c3c2=O)[C@@H]2OC(C)(C)O[C@@H]2[C@H]1O	83%
C[C@@H]1O[C@@H](OC[C@H]2O[C@@H](Oc3c(-c4ccc(O)c(O)c4)oc4cc(O)cc(O)c4c3=O)[C@H](O)[C@@H](O)[C@@H]2O)[C@@H]2OC3(O[C@@H]2[C@H]1O)C1CC2CC(C1)CC3C2 (some centres unmarked)	92%
C[C@@H]1O[C@@H](Oc2c(-c3cc(O)c(O)c(O)c3)oc3cc(O)cc(O)c3c2=O)[C@H](O)[C@H](O)[C@H]1O [Myricitrin, reference compound]	56%
C[C@@H]1O[C@@H](Oc2c(-c3ccc(O)c(O)c3)oc3cc(O)cc(O)c3c2=O)[C@@H]2OC3(CCCCC3)O[C@@H]2[C@H]1O	95%

----------
System: carragenin edema
Assay: Anti-inflammatory activity: carragenin edema test
Format: in vivo
Details: Rattus norvegicus, ip, read-out: % inhibition of carragenin edema, 75 mg/kg i.p., borate buffer pH 7, 1/2 h
TEST_READOUT: inhibition in vivo at 75 mg/kg

COMPOUND	MEASUREMENT_TARGET	TEST_READOUT	RESULT
C[C@@H]1O[C@@H](OC[C@H]2O[C@@H](Oc3c(-c4ccc(O)c(O)c4)oc4cc(O)cc(O)c4c3=O)[C@H](O)[C@@H](O)[C@@H]2O)[C@@H]2OC3(CCCCC3)O[C@@H]2[C@H]1O [No. 6]	carragenin edema	inhibition in vivo at 75 mg/kg	29%
C[C@@H]1O[C@@H](Oc2c(-c3ccc(O)c(O)c3)oc3cc(O)cc(O)c3c2=O)[C@@H]2OC3(CCCCC3)O[C@@H]2[C@H]1O [No. 7]	carragenin edema	inhibition in vivo at 75 mg/kg	48%
C[C@@H]1O[C@@H](Oc2c(-c3ccc(O)c(O)c3)oc3cc(O)cc(O)c3c2=O)[C@@H]2OC(C)(C)O[C@@H]2[C@H]1O [No. 3]	carragenin edema	inhibition in vivo at 75 mg/kg	26%
C[C@@H]1O[C@@H](OC[C@H]2O[C@@H](Oc3c(-c4ccc(O)c(O)c4)oc4cc(O)cc(O)c4c3=O)[C@H](O)[C@@H](O)[C@@H]2O)[C@@H]2OC(C)(C)O[C@@H]2[C@H]1O [No. 1]	carragenin edema	inhibition in vivo at 75 mg/kg	18%
